# experimental-protocol: NCI Yeast Anticancer Drug Screen. Data for the mlh1 rad18 strain (AID 175)
# setup-conditions: S. cerevisiae mlh1 rad18 strain growth inhibition; at 5.0 µM (retest, dose inferred, filed as 0.5)
Compounds without any hit were thinned out: in the full panel of roughly 79,000, 15% have a hit. Active and inactive are the calls of the source. Rule as the data show it: active = growth inhibition above about 70%; inactive = the rest.
Outcomes: class 1 = active, class 0 = inactive

# molecule, category
data = [
    ("O=C1Oc2ccccc2C(=O)/C1=C/N1C(=O)/C(=C/c2ccc3c(c2)OCO3)SC1=S", "class 0"),
    ("C=[CH][Sn]([CH]=C)([S]c1cccc2cccnc12)[S]c1cccc2cccnc12", "class 0"),
    ("CCOC(=O)C(C)(C)C", "class 0"),
    ("NC(=S)C1CCC(C2CCCCC2)CC1 (stereo unspecified)", "class 0"),
    ("CC1=CCCc2c1cc1ccc3cccc4ccc2c1c34", "class 0"),
    ("CC(C)(C)N1C(=O)C(Cl)(C#N)C1c1ccccc1 (stereo unspecified)", "class 0"),
    ("CCC(CO)Nc1nc2cc(Br)ccc2c2ccc(Br)cc12 (stereo unspecified)", "class 0"),
    ("CC(=O)OCC1OC(OC2CCCc3c(O)c4c(c(O)c32)C(=O)c2ccccc2C4=O)C(OC(C)=O)C(OC(C)=O)C1OC(C)=O (stereo unspecified)", "class 0"),
    ("CN1C(=O)C23SSC1(C)C(=O)N2c1ccccc1C3(C)C (stereo unspecified)", "class 1"),
    ("Oc1ccccc1C(=NNc1ccccc1)c1ccccc1O", "class 1"),
    ("CCCCCCCCCCCCNc1ccccn1", "class 0"),
]

###

# experimental-protocol: NCI Yeast Anticancer Drug Screen. Data for the cln2 rad14 strain (AID 165);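 also: 0% = growth equal to vehicle treated cultures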
# setup-conditions: S. cerevisiae cln2 rad14 strain, at 5.0 µM (retest, dose inferred, filed as 0.5), hits give high values
The panel holds about 79,000 compounds, 15% with a hit somewhere; the sample as a whole holds those more often.

# compound, growth inhibition, %
rows = [
    ("CCS(=O)(=O)C(C(O)C(O)C(O)C(O)CO)S(=O)(=O)CC (stereo unspecified)", 0),
    ("O=CC(O)C(O)C(O)C(O)C(=O)NCCCCCCCCCCCCNC(=O)C(O)C(O)C(O)C(O)C=O (stereo unspecified)", -2),
    ("CCOC(=O)Nc1cc2c(c(N)n1)N=C(c1ccccc1)CN2", 11),
    ("CC(C)(Cl)C(Cl)CC/C(CBr)=C(\\Cl)CBr (stereo unspecified)", 21),
    ("CC1CCC2(NC1)OC1CC3[C@@H]4CC=C5C=CCC[C@]5(C)C4CC[C@]3(C)C1C2C (stereo partly specified)", 6),
    ("O=C(O)c1ccc(OCc2ccccc2)c(Cl)c1", -8),
    ("COc1ccc(-c2ccccc2)cc1SCCC(=O)O", -7),
    ("Cc1ccc(S(=O)(=O)OCC2OC(c3ccccc3)OC3C(CO)OC(c4ccccc4)OC23)cc1 (stereo unspecified)", 4),
    ("NCC(=O)N/N=C/c1ccc([N+](=O)[O-])o1", -1),
    ("c1c[n+](CCC2CCCCC2)ccn1", -26),
    ("O=C(CC(C[N+](=O)[O-])c1ccc2c(c1)OCO2)c1ccccc1 (stereo unspecified)", 4),
]

###

# experimental-protocol: NCI Yeast Anticancer Drug Screen. Data for the rad50 strain (AID 155);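 also: 0% = growth of vehicle-only cultures of the same strain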
# setup-conditions: S. cerevisiae rad50 strain growth inhibition; at 5.0 µM (retest, dose inferred, filed as 0.5); hits give high values
# Procedure: Growth inhibition of yeast strains with defined genetic alterations is measured as a screen for potential anti-cancer activity. Selected strains with alterations in DNA damage repair or cell cycle control were exposed to compounds and growth inhibition was measured relative to vehicle treated controls. The strain used in this assay is rad50
About 79,000 compounds went through this panel and 15% of them were active in at least one assay; those are over-represented in the sample as a whole. Active and inactive are the calls of the source. Cut-off read from the data, not from the text of the source: active = growth inhibition above about 70%; inactive = the rest.
The reader will find reported growth inhibition values listed item by item below.

# molecule, growth inhibition
records = [
    ("C=C(C)C1(C(=O)OCC(Cl)(Cl)Cl)NC(=O)C(NC(=O)COc2ccccc2)=CO1 (stereo not given)", "26% (inactive)"),
    ("COc1cc2c(c(OC)c1OC)-c1ccc(SC)c(=O)cc1[C@@H](NC(=O)Oc1ccccc1)CC2", "73% (active)"),
    ("CCCCCCCCCCCOc1cccc(N2C(N)=NC(N)=NC2(C)C)c1", "99% (active)"),
    ("CC(Cc1ccccc1)N1C(=O)C=CC1=O (stereo not given)", "45% (inactive)"),
    ("COc1ccc(CSC(=S)Nc2ccc(SC)c(Cl)c2)cc1", "50% (inactive)"),
    ("Nc1cccc2c1[nH]c(=O)c1ccccc12", "7% (inactive)"),
    ("CC(C)C(=O)/C=C/c1c(Cl)cccc1Cl", "22% (inactive)"),
    ("COc1cc(OC)c(/C=C\\c2ccnc3ccccc23)c(OC)c1", "35% (inactive)"),
    ("O=C(NCCc1c(-c2ccccc2)[nH]c2ccccc12)C(F)(F)C(F)(F)F", "21% (inactive)"),
    ("C=C1C[C@H]2C=Nc3cc(OCCCOc4cc5c(cc4OC)C(=O)N4CC(=C)C[C@H]4C=N5)c(OC)cc3C(=O)N2C1", "92% (active)"),
]

###

# experimental-protocol: NCI Yeast Anticancer Drug Screen. Data for the rad50 strain (AID 155);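 also: 0% = growth of vehicle-only cultures of the same strain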
# setup-conditions: S. cerevisiae rad50 strain growth inhibition; at 50.0 µM (retest, dose inferred, filed as 5.0); hits give high values
About 79,000 compounds went through this panel and 15% of them were active in at least one assay; those are over-represented in the sample as a whole.
Respond with class 1 for growth inhibition values of 90% and above, class 0 for values below.

# compound, category
rows = [
    ("CC1=C[P+](c2ccccc2)(c2ccccc2)C=C(c2ccccc2)O1", "class 1"),
    ("O=C1c2cccc(NCCNCCO)c2C(=O)c2cccc(NCCNCCO)c21", "class 0"),
    ("Oc1ccc(-c2ccc3ccccc3c2)cc1", "class 1"),
    ("O=[N+]([O-])c1cccc(S(=O)(=O)Nc2cccc3ccccc23)c1", "class 1"),
    ("Nc1cccc2c1[nH]c(=O)c1ccccc12", "class 0"),
    ("CCCCN(CCCC)CC(O)c1cc(-c2ccc(Cl)cc2)nc2c(-c3ccccc3)cccc12 (centres undefined)", "class 0"),
    ("COc1ccc(Cc2nc3ccc(Cl)cc3[nH]2)cc1", "class 0"),
    ("O=C(O)CC1c2ccccc2-c2ccccc21", "class 0"),
    ("COc1ccc(C2C3C(=O)OCCOC(=O)C3C2c2ccc(OC)c(OC)c2)cc1OC (centres undefined)", "class 0"),
    ("COc1ccc(C(c2ccccc2C(=O)O)c2ccc(OC)c3ccccc23)c2ccccc12", "class 1"),
    ("CC(C)C12CCC3(CCC4C(C)(C(=O)O)CCCC4(C)C3C1)C(CN)C2 (centres undefined)", "class 1"),
    ("CO/C(=N\\N=C(/c1ccccc1)C(F)(F)F)c1ccncc1", "class 0"),
    ("C/C(=N\\NC(=S)N(C)C)c1cccc(C)n1", "class 1"),
    ("Clc1cc[c]([Sn]([Cl])([O][Sn]([Cl])([c]2ccc(Cl)cc2)[c]2ccc(Cl)cc2)[c]2ccc(Cl)cc2)cc1", "class 1"),
    ("O=c1c2ccccc2c2ccccc2c(=O)n1-c1cc2c3ccccc3ccc2c2ccccc12", "class 0"),
    ("O=C(C[n+]1ccccc1)N=N/C(C(=O)Nc1c(Cl)c(O)c2ccccc2c1O)=C1/C(=O)Oc2cc(O)ccc2C1=O", "class 1"),
    ("c1cc(Nc2ccc(Nc3ccc(CN4CCCCC4)cc3)cc2)ccc1CN1CCCCC1", "class 1"),
    ("CN(C)CCC(=O)c1ccco1", "class 0"),
    ("Cc1nc(-c2ccc(N=Cc3ccc(N(CCOS(C)(=O)=O)CCOS(C)(=O)=O)cc3)cc2)cs1", "class 0"),
    ("Cc1ccc(S(=O)(=O)NC(Cc2ccccc2)C(=O)CCl)cc1 (centres undefined)", "class 1"),
    ("CC1(C)CNCC(C)(OCc2ccccc2)C(=O)NC(C)(C)CNCC(C)(OCc2ccccc2)C(=O)N1 (centres undefined)", "class 0"),
    ("CC(C)(CN1CCCCC1)C(=O)CC(SCCS(=O)(=O)O)c1ccc(Cl)c(Cl)c1 (centres undefined)", "class 1"),
    ("O=[N+]([O-])c1ccc(O)c(C=Nc2ccccc2)c1", "class 0"),
    ("S=C(N/N=C/c1ccccn1)N1CC2CCC(CC2)C1", "class 1"),
    ("CCCC/C(=C\\c1cc(Cl)c(O)c(Cl)c1)C(=O)O", "class 0"),
    ("CC1=C(C#N)C(=O)N(C)C(=O)C1(Cl)Cl", "class 0"),
    ("Clc1ccc2ccc3cccnc3c2n1", "class 1"),
    ("Cc1cc2c(cc1C)C(=O)OC2=O", "class 0"),
    ("CCc1ccc(/C=C/C(=O)C2CN(CC)CCC2(O)/C=C/c2ccc(CC)cc2)cc1 (centres undefined)", "class 1"),
    ("FC(F)(F)c1ccccc1NC(=S)SCc1ccc(Cl)cc1", "class 0"),
    ("NNc1cc(C(F)(F)F)nc2ccccc12", "class 0"),
    ("O=C(O)Cc1cccc(O)c1", "class 0"),
    ("CCOC(=O)c1ccc(C(C)C)cc1", "class 1"),
    ("Cc1cc([N+](=O)[O-])c2nnnn2c1", "class 0"),
    ("O=C(C1=NNC(c2ccccc2)C1C(=O)c1ccccc1)c1ccccc1 (centres undefined)", "class 0"),
    ("CNC(=O)OCc1c(COC(=O)NC)c2n(c1C)-c1ccccc1CCC2", "class 0"),
    ("Cc1ncc(CO)c(C=NCCCCCCN=Cc2c(CO)cnc(C)c2[O-])c1[O-].[Cu+2]", "class 0"),
    ("CCCCCCC(/C=C/c1ccccc1)=N\\O", "class 1"),
    ("O=C(/C=C/C(=O)N1CCCC1)N1CCCC1", "class 0"),
    ("O=C(Nc1cccc(NC(=O)c2cc(=O)c3ccccc3o2)n1)c1cc(=O)c2ccccc2o1", "class 0"),
    ("NNC(=S)N/N=C(/C(=O)Nc1ccc(Cl)c(Cl)c1)C(C1OC(=O)c2ccccc21)[N+](=O)[O-] (centres undefined)", "class 0"),
    ("C[n+]1c2ccccc2cc2[nH]c3ccccc3c21", "class 1"),
]
